- Tested on: COLO 205
- procedure.text: NCI tumour cell line growth inhibition, 48 h
The source made the active and inactive calls. Rule as the data show it: active = GI50 up to about 1.1 µM and inactive = higher.
// allowed return values: active, inactive

Hello, I am checking results. What call was entered for COc1ccc(-c2coc3c4c(ccc3c2=O)OCO4)cc1OC ? inactive

Hello, I am checking results. What call was entered for COc1ccc2[nH]c3c([N+](=O)[O-])ccc(Cl)c3c(=O)c2c1 ? inactive

Hello, I am checking results. What call was entered for CCOC(=O)Cn1c(=O)c2cc(-c3ccccc3)cc3c(Cl)nc4c(OC)c(OC)cc1c4c32 ? inactive

====

Measured GI50, listed per entry.
- System: OVCAR-3
- procedure.text: NCI tumour cell line growth inhibition, 48 h
Calls of active or inactive are those of the source. Rule as the data show it: active = GI50 up to about 1.1 µM and inactive = higher.

Study these solved cases before continuing.
molecule	GI50
OCCN(CCO)c1ccc2c(c1)Cc1ccccc1-2	17 µM (inactive)
COc1ccc(-c2csc(=[N+]3CCCCC3)s2)cc1	3.92 µM (inactive)
CN(C(=O)c1cccs1)C(=S)N1CCN(c2ccccn2)CC1	> 100 µM (inactive)
C=CCC(N(C)C(=O)[C@H](Cc1ccccc1)NC(=O)OCc1ccccc1)P(=O)(Oc1ccccc1)Oc1ccccc1 (some centres not stated)	> 100 µM (inactive)
COc1cc(C(=O)C/C(CCC(=O)Nc2ccccc2[N+](=O)[O-])=N\NC(=O)C(N)=O)ccc1O	> 100 µM (inactive)
Cc1cc(O)nc(NN2C(Cl)C(=O)C2c2ccc([N+](=O)[O-])cc2)n1 (configuration not stated)	6.53 µM (inactive)

Now consider the entry below.
Retrieve GI50 measured for COC1OCC(O)C(NC(=O)N(C)N=O)C1O (configuration not stated) and print it. > 100 µM (inactive)
